target under test: sigma-2 receptor (Homo sapiens)
Construct: MCF7 cells were suspended in sigma-2 assay buffer (50 mM Tris-HCl; pH 8.0), sonicated (1 minute) and the homogenate was centrifuged; endogenous in cells; host or cells: MCF7 cells (gift), membrane pellet
assay comment: biochemical
Type: binding
measurement label: σ-2 R affinity pKi ± SEM (n)

Known results for compounds:
compound=CC[N+](CC)(CC)CC target_under_test="sigma-2 receptor (Homo sapiens)" measurement_label="σ-2 R affinity pKi ± SEM (n)" readout_value="<3 (3)"
compound=CCCCCCCCCCN target_under_test="sigma-2 receptor (Homo sapiens)" measurement_label="σ-2 R affinity pKi ± SEM (n)" readout_value="5.41 ± 0.07 (3)"
compound=CCCCCCN.Cl target_under_test="sigma-2 receptor (Homo sapiens)" measurement_label="σ-2 R affinity pKi ± SEM (n)" readout_value="5.1 ± 0.2 (3)"
compound="NC1C2CC3CC(C2)CC1C3 (centres unmarked)" target_under_test="sigma-2 receptor (Homo sapiens)" measurement_label="σ-2 R affinity pKi ± SEM (n)" readout_value="5.5 ± 0.2 (3)"
compound=CCCCCCCCNCCCCCCCC target_under_test="sigma-2 receptor (Homo sapiens)" measurement_label="σ-2 R affinity pKi ± SEM (n)" readout_value="7.9 ± 0.5 (3)"

Incoming: Endpoint output: σ-2 R affinity pKi ± SEM (n) of `CCCCCN` . Value?
Outgoing: 3.9 ± 0.1 (3)

Incoming: Another: `CCCCCNCCCCC`
Outgoing: 6.9 ± 0.2 (3)

Incoming: Queued: `CCCNCCC.Cl`
Outgoing: 4.10 ± 0.07 (3)

Incoming: Now the same for `CCCCCCCCN.Cl`
Outgoing: 5.2 ± 0.2 (3)

###

target under test: human dopamine transporter (Homo sapiens, UniProt Q01959)
Sequence (Q01959 whole entry): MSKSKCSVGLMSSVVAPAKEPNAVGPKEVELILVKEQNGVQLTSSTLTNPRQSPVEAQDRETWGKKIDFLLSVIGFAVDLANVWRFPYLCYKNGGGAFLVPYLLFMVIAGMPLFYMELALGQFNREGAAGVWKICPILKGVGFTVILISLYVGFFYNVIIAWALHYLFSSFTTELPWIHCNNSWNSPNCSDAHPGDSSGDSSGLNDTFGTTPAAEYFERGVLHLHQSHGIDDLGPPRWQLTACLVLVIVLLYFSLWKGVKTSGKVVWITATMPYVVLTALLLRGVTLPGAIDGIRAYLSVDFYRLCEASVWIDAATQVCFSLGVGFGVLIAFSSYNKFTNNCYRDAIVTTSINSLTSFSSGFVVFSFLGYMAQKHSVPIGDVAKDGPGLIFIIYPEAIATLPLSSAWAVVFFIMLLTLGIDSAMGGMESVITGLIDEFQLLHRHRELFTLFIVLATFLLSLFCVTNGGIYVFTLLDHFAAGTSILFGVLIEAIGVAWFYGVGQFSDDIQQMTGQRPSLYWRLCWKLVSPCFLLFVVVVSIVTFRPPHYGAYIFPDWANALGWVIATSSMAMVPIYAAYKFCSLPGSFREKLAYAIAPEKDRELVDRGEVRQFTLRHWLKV
assay comment: Monoamine transporter uptake assay, 293 cells expressing dopamine transporter
condition parameters: read-out: IC50 dopamine transport
measurement label: pIC50
Keep in mind that pIC50 stands for -log10 of concentration in molar terms.

Incoming: GET /values?readout=pIC50&system=human dopamine transporter (Homo sapiens, UniProt Q01959)&item= `CCCCCNCCCCC`
Outgoing: 3.22

###

target under test: sigma-2 receptor (Homo sapiens, UniProt Q5BJF2)
Construct: MCF7 cells were suspended in sigma-2 assay buffer (50 mM Tris-HCl; pH 8.0), sonicated (1 minute) and the homogenate was centrifuged; endogenous in cells; host or cells: MCF7 cells (gift), membrane pellet
Sequence (Q5BJF2 whole entry): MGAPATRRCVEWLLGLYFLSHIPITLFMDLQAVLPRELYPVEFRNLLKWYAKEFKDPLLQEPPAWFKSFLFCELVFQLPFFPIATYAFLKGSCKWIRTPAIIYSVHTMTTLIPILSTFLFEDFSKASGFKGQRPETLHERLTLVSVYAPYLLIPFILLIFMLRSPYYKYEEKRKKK
assay comment: biochemical
Type: binding
measurement label: Ki (µM)
Just the number please, in µM, no unit attached.

test_smiles=CCCC[N+](CCCC)(CCCC)CCCC target_under_test="sigma-2 receptor (Homo sapiens, UniProt Q5BJF2)" quantity_unit=µM readout_value=60

Incoming: Consider the compound shown here: `C1CCC(NC2CCCCC2)CC1` What is its recorded Ki?
Outgoing: 0.138

###

target under test: sigma-2 receptor (Homo sapiens, UniProt Q5BJF2)
Construct: MCF7 cells were suspended in sigma-2 assay buffer (50 mM Tris-HCl; pH 8.0), sonicated (1 minute) and the homogenate was centrifuged; endogenous in cells; host or cells: MCF7 cells (gift), membrane pellet
assay comment: biochemical
Format: binding
condition parameters: read-out: σ-2 R affinity Ki
measurement label: Ki (µM)
Please state the figure in µM; there is no need to write the unit.

Consider the worked cases shown below.
molecule=CCCCCN measurement_label=Ki readout_value=130
molecule=CCCCCCN(CCCCCC)CCCCCC measurement_label=Ki readout_value=0.23
molecule="CCC(C)NC(C)CC (stereo not drawn)" measurement_label=Ki readout_value=6.3

Incoming: For `CC(C)NC(C)C` , what is its reported Ki?
Outgoing: 71

Incoming: Follow-up entry: `CCCN(CCC)CCC`
Outgoing: 44

Incoming: Do the same for `CCCCN` please
Outgoing: 550

Incoming: Lookup `CCCCCNCCCCC`
Outgoing: 0.12

Incoming: One more molecule: `CCCNCCC.Cl`
Outgoing: 79

Incoming: Can you handle `CCCCCCN.Cl` next?
Outgoing: 7.8
